# Tested on: Vero E6 infected with SARS-CoV-2
# protocol.description: morphology score (similarity to uninfected cells); higher = more like uninfected cells
# experimental.context: 24 h
Each record's morphology score is compared with low interval: < -0.03; middle interval: ≥ -0.03 and < 0.09; high interval: ≥ 0.09 to give its class.

Input line: Textbook exercise: identify the category of the compound given here, CC[C@H](C)C[C@H](C)CCCCCCCCC(=O)N[C@H]1C[C@@H](O)[C@@H](NCCN)NC(=O)[C@@H]2[C@@H](O)CCN2C(=O)[C@H]([C@H](O)CCN)NC(=O)[C@H]([C@H](O)[C@@H](O)c2ccc(O)cc2)NC(=O)[C@@H]2C[C@@H](O)CN2C(=O)[C@H]([C@@H](C)O)NC1=O [caspofungin] (10 µM) , according to its measured value.
Output line: middle interval

Input line: Please indicate the class for CCCC[C@H]1OC(=O)c2ccccc21 [butylphthalide] (10 µM) based on its morphology score.
Output line: low interval

Input line: Category of CC(=O)O[C@H]1CC[C@@]2(C)C(=CC[C@@H]3[C@@H]2CC[C@]2(C)C(c4cccnc4)=CC[C@@H]32)C1 [abiraterone-acetate] (10 µM) :
Output line: low interval

Input line: # bin lookup: classify CN(CCOc1ccc(NS(C)(=O)=O)cc1)CCc1ccc(NS(C)(=O)=O)cc1 [dofetilide] (10 µM) by its morphology score
Output line: middle interval

Input line: Where would COc1cc2ncnc(Nc3ccc(F)c(Cl)c3)c2cc1NC(=O)/C=C/CN1CCCCC1 [dacomitinib] (0.833333 µM) land among the classes by reported morphology score?
Output line: low interval

Input line: Note: place this compound into its band. Item: N=C(N)NC(=O)c1nc(Cl)c(N)nc1N [amiloride] (10 µM)
Output line: high interval

Input line: Into which category would you place COc1ccc(N(C(=O)Oc2c(C)cccc2C)c2ccnc(Nc3ccc(N4CCN(C)CC4)cc3)n2)c(OC)c1 (10 µM) ?
Output line: middle interval

Input line: Determine which band this compound sits in: CO[C@H]1/C=C/O[C@@]2(C)Oc3c(C)c(O)c4c(O)c(c(/C=N/N5CCN(C)CC5)c(O)c4c3C2=O)NC(=O)/C(C)=C\C=C\[C@H](C)[C@H](O)[C@@H](C)[C@@H](O)[C@@H](C)[C@H](OC(C)=O)[C@@H]1C [rifampin] (0.833333 µM)
Output line: middle interval

Input line: Could you tell me which band CC(C)(C)CC(C)(C)c1ccc(O)c(Cc2ccc(Cl)cc2Cl)c1 [clofoctol] (10 µM) belongs to?
Output line: high interval

Input line: Given CC1(C)S[C@@H]2[C@H](NC(=O)Cc3ccccc3)C(=O)N2[C@H]1C(=O)O [benzylpenicillin] (10 µM) , name the class its morphology score places it in.
Output line: low interval

Input line: Band for the recorded morphology score of CCCC(C)C1(CC)C(=O)NC(=O)NC1=O (configuration not stated) [pentobarbital] (10 µM) ?
Output line: middle interval

Input line: Place this compound in its band: CCCCCCCCCCCCC/C=C/[C@@H](O)[C@@H](N)CO[P@](=O)(O)OCC[N+](C)(C)C [sphingosylphosphorylcholine] (10 µM)
Output line: middle interval

Input line: Lab note: sort COc1ccc(CCNCC(O)COc2cccc(C)c2)cc1OC (configuration not stated) [bevantolol] (10 µM) into the matching morphology score band.
Output line: middle interval

Input line: Band for C=CC[C@]1(O)CC[C@H]2[C@@H]3CCC4=CC(=O)CCC4=C3C=C[C@@]21C [altrenogest] (10 µM) ?
Output line: middle interval

Input line: For O=C(NO)C1(CS(=O)(=O)c2ccc(Oc3ccc(Cl)cc3)cc2)CCOCC1 (10 µM) , which morphology score bin applies?
Output line: middle interval

Input line: Which class is correct for the following compound? CCCCc1oc2ccc(NS(C)(=O)=O)cc2c1C(=O)c1ccc(OCCCN(CCCC)CCCC)cc1 [dronedarone] (0.833333 µM)
Output line: low interval

Input line: Which of the defined bands does the recorded morphology score of CN/C(=N\CCSCc1nc[nH]c1C)NC#N [cimetidine] (10 µM) sit within?
Output line: high interval

Input line: In plain terms, what class is O=c1[nH]cnc2c1cnn2[C@@H]1O[C@H](CO)[C@@H](O)[C@H]1O [allopurinol-riboside] (10 µM) ?
Output line: middle interval

Input line: Which class does CSc1ccc2c(c1)N(CCC1CCCCN1C)c1ccccc1S2 (configuration not stated) [thioridazine] (0.833333 µM) fall in?
Output line: high interval

Input line: Lab note: sort CN(C)CCCCSC(=N)N (10 µM) into the matching morphology score band.
Output line: middle interval

Input line: In plain terms, what class is CCN[C@H]1CN(CCCOC)S(=O)(=O)c2sc(S(N)(=O)=O)cc21 [brinzolamide] (10 µM) ?
Output line: high interval

Input line: Could you place N[C@@H](Cc1cc(-c2ccc(Cl)cc2Cl)cc(CP(=O)(O)O)c1O)C(=O)O (10 µM) in its proper category? Many thanks.
Output line: low interval

Input line: State the class of the compound shown: C=CC(=O)Nc1cc2c(Nc3ccc(F)c(Cl)c3)ncnc2cc1OCCCN1CCOCC1 [canertinib] (10 µM)
Output line: low interval

Input line: Form: Item = S=C(S)N1CCCC1 [pyrrolidine-dithiocarbamate] (0.833333 µM) ; Class = ?
Output line: high interval

Input line: Lab note: which band did CCCOC(C(=O)OC1CCN(C)CC1)(c1ccccc1)c1ccccc1 [propiverine] (10 µM) land in?
Output line: high interval

Input line: State the class of the compound shown: C=C(c1ccc(C(=O)O)cc1)c1cc2c(cc1C)C(C)(C)CCC2(C)C [bexarotene] (10 µM)
Output line: high interval
